Target: cAMP-dependent protein kinase catalytic subunit beta (Homo sapiens, UniProt P22694); further: in the data inactive means no Kd found up to 30 µM
Calls of active or inactive are those of the source.
Entry note: the call must match one of Y for active, N for inactive

Solved entries:
CC(=O)NCC(=O)N1[C@@H]2CC[C@H]1c1ccc(Nc3ncc(C(F)(F)F)c(NC4CCC4)n3)cc12 [PF-03814735]: N
Cc1cc(C(=O)NOCCO)c(Nc2ccc(I)cc2F)n(C)c1=O [AZD-8330]: N
Cc1nc2cc(-c3nn(C(C)C)c4ncnc(N)c34)ccc2o1: N
N#CC1(c2ccc(NC(=O)c3cccnc3NCc3ccncc3)cc2)CCCC1 [RIVOCERANIB]: N
Cc1nc2cc(-n3ncc(C(=O)c4cc5ccccc5[nH]4)c3N)ccc2[nH]1 [FGFR INHIBITOR DEBIO 1347]: N
C[C@H]1CNCCCN1S(=O)(=O)c1cccc2cncc(F)c12: N
C=CC(=O)Nc1cc2c(Nc3ccc(F)c(Cl)c3)ncnc2cc1C#CC(C)(C)N1CCN(C)CC1 [AV-412 FREE BASE]: N
Cc1cc(Nc2ncnc3ccc(NC4=NC(C)(C)CO4)cc23)ccc1Oc1ccn2ncnc2c1 [TUCATINIB]: N
CO[C@H]1C[C@@H]2CC[C@@H](C)[C@@](O)(O2)C(=O)C(=O)N2CCCC[C@H]2C(=O)O[C@H]([C@H](C)C[C@@H]2CC[C@@H](OC(=O)C(C)(CO)CO)[C@H](OC)C2)CC(=O)[C@H](C)/C=C(\C)[C@@H](O)[C@@H](OC)C(=O)[C@H](C)C[C@H](C)/C=C/C=C/C=C/1C [TEMSIROLIMUS]: N
Cn1ncc(Cl)c1-c1cc(C(=O)N[C@H](CN)Cc2ccc(F)c(F)c2)oc1Cl [UPROSERTIB]: Y

Now look at this entry.
Recorded test outcome, item CC(=O)c1cnc2ccc(-c3cc(Cl)c(O)c(Cl)c3)nc2c1N[C@H]1CC[C@H](CN(C)C)CC1
N
